# measured.on: Amine oxidase [flavin-containing] A (Homo sapiens, UniProt P21397)
# Sequence (P21397 whole entry): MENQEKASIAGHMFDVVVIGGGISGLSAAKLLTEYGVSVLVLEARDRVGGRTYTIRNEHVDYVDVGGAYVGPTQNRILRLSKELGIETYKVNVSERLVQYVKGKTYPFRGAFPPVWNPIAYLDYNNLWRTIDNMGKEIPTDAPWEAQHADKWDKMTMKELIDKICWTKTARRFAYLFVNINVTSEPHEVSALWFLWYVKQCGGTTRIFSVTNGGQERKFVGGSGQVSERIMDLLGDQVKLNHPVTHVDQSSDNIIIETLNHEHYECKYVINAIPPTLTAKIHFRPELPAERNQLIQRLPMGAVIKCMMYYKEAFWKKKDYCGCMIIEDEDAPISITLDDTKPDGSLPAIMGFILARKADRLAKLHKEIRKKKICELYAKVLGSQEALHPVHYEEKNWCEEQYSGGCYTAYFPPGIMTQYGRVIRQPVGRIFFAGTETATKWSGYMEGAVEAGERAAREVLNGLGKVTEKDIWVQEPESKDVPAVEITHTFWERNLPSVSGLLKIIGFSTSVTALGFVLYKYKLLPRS
# test.description: Inhibition of human recombinant MAO-A at 0.1 nM using tyramine as substrate preincubated with enzyme for 30 mins followed by incubation with substrate for 30 mins by Amplex Red reagent based fluorometric method relative to control
# condition.summary: 0.5 h, time 60 min
measured.attribute: inhibition at 0.0001 µM (%)

C=CCNc1nnc(SCC(=O)N(Cc2cccc([N+](=O)[O-])c2)c2ccc(F)cc2)s1    13.5
C#CCN(C)CCCOc1ccc(Cl)cc1Cl    17
CCCCNc1nnc(SCC(=O)N(Cc2cccc([N+](=O)[O-])c2)c2ccc(F)cc2)s1    11.1
CC(C)Nc1nnc(SCC(=O)N(Cc2cccc([N+](=O)[O-])c2)c2ccc(F)cc2)s1    10.8
COCCNc1nnc(SCC(=O)N(Cc2cccc([N+](=O)[O-])c2)c2ccc(F)cc2)s1    20.1
CCNc1nnc(SCC(=O)N(Cc2cccc([N+](=O)[O-])c2)c2ccc(F)cc2)s1    14.2
CC(C)CNc1nnc(SCC(=O)N(Cc2cccc([N+](=O)[O-])c2)c2ccc(F)cc2)s1    12.6
O=C(NCCN1CCOCC1)c1ccc(Cl)cc1 [MOCLOBEMIDE]    12.8
CCCNc1nnc(SCC(=O)N(Cc2cccc([N+](=O)[O-])c2)c2ccc(F)cc2)s1    12
